assay: PK in mice after a single i.v. administration; assay type: in vivo, male Swiss mice; settings: male, Swiss, mouse, in vivo, iv, 10 mg/kg i.v., read-out: Volume of distribution
measuredParameter: Vd (L/kg)
Use L/kg as the unit, but write only the number.

Task: Could you share which Vd value was measured for NC(=O)OC[C@@H](O)C[C@H](NC(=O)[C@H]1NCCC[C@H]1O)C(=O)N[C@@H](Cc1c[nH]cn1)C(=O)N[C@H](C(=O)O)[C@H](O)c1cnc(Cl)[nH]1 [GE81112A] ?
Result: 0.321

====

assay: Cellular permeability assay using the CaCo2/TC7 cell line; type: in vitro ADME, human; conditions: human, Caco-2; 1 or 20 μM, apical-to-basolateral, 120 min, pH 7.4; read-out: Apparent permeability
measuredParameter: Papp at 120 min

Task: Item NC(=O)OC[C@@H](O)C[C@H](NC(=O)[C@H]1NCCC[C@H]1O)C(=O)N[C@@H](Cc1c[nH]cn1)C(=O)N[C@H](C(=O)O)[C@H](O)c1cnc(Cl)[nH]1 [GE81112A] has what recorded Papp at 120 min?
Result: 0.028 to 0.316 ×10⁻⁶ cm/s

====

assay: PK in mice after a single i.v. administration; type: in vivo, male Swiss mice; details: male, Swiss, mouse, urine, iv, 10 mg/kg i.v., over 24 h, read-out: Proportion of dose recovered in urine
measuredParameter: dose excreted (%)
Just the number in %, nothing appended.

Task: If you can, please state the reported dose excreted value of NC(=O)OC[C@@H](O)C[C@H](NC(=O)[C@H]1NCCC[C@H]1O)C(=O)N[C@@H](Cc1c[nH]cn1)C(=O)N[C@H](C(=O)O)[C@H](O)c1cnc(Cl)[nH]1 [GE81112A] .
Result: 30

====

assay: Solubility in 0.9% NaCl solution; assay type: physicochemical; conditions: sodium chloride solution (0.9%)
measuredParameter: solubility

Task: Fill blank: measured solubility of the compound NC(=O)OC[C@@H](O)C[C@H](NC(=O)[C@H]1NCCC[C@H]1O)C(=O)N[C@@H](Cc1c[nH]cn1)C(=O)N[C@H](C(=O)O)[C@H](O)c1cnc(Cl)[nH]1 [GE81112A] is ____.
Result: > 500 µg/mL

====

test: Solubility in phosphate buffer (pH 7.4); format: physicochemical
measuredParameter: solubility at 16 h

Task: Item under review: NC(=O)OC[C@@H](O)C[C@H](NC(=O)[C@H]1NCCC[C@H]1O)C(=O)N[C@@H](Cc1c[nH]cn1)C(=O)N[C@H](C(=O)O)[C@H](O)c1cnc(Cl)[nH]1 [GE81112A] . Reported solubility at 16 h?
Result: > 500 µg/mL

====

experiment: Plasma stability; type: in vitro ADME; settings: human blood plasma, 37°C, 4 h, read-out: Hydrolysis
measuredParameter: metabolised at 4 h, 1 μM (%)
Provide only the numeric value, understood in %.

Task: Return reported metabolised at 4 h, 1 μM; argument: NC(=O)OC[C@@H](O)C[C@H](NC(=O)[C@H]1NCCC[C@H]1O)C(=O)N[C@@H](Cc1c[nH]cn1)C(=O)N[C@H](C(=O)O)[C@H](O)c1cnc(Cl)[nH]1 [GE81112A]
Result: 27

Measured values drawn from paper PMC10269895 for this set.
